All figures here come from patent US20250059196A1.

- assay info: Pharmacokinetics of oral administration in Balb/C mice
- Type: in vivo
- experimental setup: male, mouse, po, 30 mg/kg, P.O., plasma, read-out: MRT
Reported MRT values for the following compounds.
readout label: MRT (h)

1) O=C(Nc1cnc(-n2cccn2)c(C(F)(F)F)c1)c1cnn(-c2ccc3c4c(cccc24)C(=O)N3)c1C(F)(F)F; 4.7
2) O=C(Nc1cnc(-n2nccn2)c(Cl)c1)c1cnn(-c2ccc3c4c(cccc24)C(=O)N3)c1C(F)(F)F; 5.2
3) O=C(Nc1cc(Cl)n2ncc(Cl)c2c1)c1cnn(-c2ccc3c4c(cccc24)C(=O)N3)c1C(F)(F)F; 9.4
4) O=C(Nc1ccc(-n2nccn2)c(Cl)c1)c1cnn(-c2cnc3c4c(cccc24)C(=O)N3)c1C(F)(F)F; 5.5
5) O=C(Nc1cnc(-n2nccn2)c(C(F)(F)F)c1)c1cnn(-c2ccc3c4c(cccc24)C(=O)N3)c1C(F)(F)F; 5.4
6) O=C(Nc1cnc(-n2nccn2)c(C(F)F)c1)c1cnn(-c2ccc3c4c(cccc24)C(=O)N3)c1C(F)(F)F; 4.3
7) O=C(Nc1ccnc(C(F)(F)F)c1)c1cnn(-c2ccc3c4c(cccc24)C(=O)N3)c1C1CC1; 12.2
